System: HaCat
Assay: Cytotoxic Profiling of Annotated Libraries Using Quantitative High-Throughput Screening (AID 1296008); note: nearly all actives have a fitted effect of over 60% in size
Conditions: Five cell lines viability, CellTiter-Glo ATP luminescence, 48-72 h
Results filed as inconclusive are left out. Activity calls are given as the source filed them. Calls come from the whole dose curve; as a rule, active = well fitted inhibition curve with a large enough effect; inconclusive = small, poorly fitted or top-dose-only effect; inactive = flat fitted curve, though single readings scatter. Residues, ends and D or L forms follow the SMILES beside them. *: point of attachment. Cbz = O=C(OCc1ccccc1)*
Result category, one only: active, inactive

Answer briefly: the call reported for CCOc1cc2ncc(C#N)c(Nc3ccc(OCc4ccccn4)c(Cl)c3)c2cc1NC(=O)C=CCN(C)C in this assay. active

Answer briefly: the call reported for OC[C@H]1OC(O)C[C@@H](O)[C@H]1O (stereo partly drawn) in this assay. inactive

Answer briefly: the call reported for CC(C)(O)Cn1c(NC(=O)c2ccc(-c3cn[nH]c3)s2)nc2cc(CN3CCOCC3)ccc21 in this assay. active

Answer briefly: the call reported for CC(C)C[C@@H](C=O)NC(=O)[C@H](CC(C)C)NC(=O)[C@H](CC(C)C)NC(=O)OCc1ccccc1 (Cbz-Leu-Leu-Leu-aldehyde) in this assay. active

Answer briefly: the call reported for COc1cccc2c1C(=O)c1c(O)c3c(c(O)c1C2=O)C[C@@](O)(C(=O)CO)C[C@@H]3O[C@H]1C[C@H](N)[C@@H](O)[C@H](C)O1 in this assay. active

Answer briefly: the call reported for COc1ccc(CCC(=O)c2c(O)cc(O[C@@H]3O[C@H](CO)[C@@H](O)[C@H](O)[C@@H]3O[C@@H]3O[C@@H](C)[C@H](O)[C@@H](O)[C@@H]3O)cc2O)cc1O in this assay. inactive

Answer briefly: the call reported for Cc1cc(-c2nnc3n2CCCCC3)c(C)n1-c1ccccc1 in this assay. inactive

Answer briefly: the call reported for COC(=O)[C@@H]1[C@H]2C[C@@H]3c4[nH]c5ccccc5c4CCN3C[C@@H]2CC[C@@H]1O in this assay. inactive

* * *

Would you kindly list parasite growth, % of DMSO control for each of these compounds?
Assay: qHTS profiling of the MIPE4 collection as inhibitors of Plasmodium falciparum (3D7) proliferation (AID 743344);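 note: scaled between DMSO vehicle wells and 0.29 µM artemisinin as full inhibition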
Settings: P. falciparum 3D7 in erythrocytes, SYBR Green DNA fluorescence, 72 h; at 28.5 µM (top of the series) unless noted
Description: Plasmodium falciparum is a virulent malarial parasite that kills 1-2 million people worldwide each year. […] Because mature erythrocytes lack DNA, only Plasmodium-derived DNA is detected. The SYBR Green viability assay was adapted from a method described previously (Plouffe et al., 2008). […] The following morning, fluorescence intensity at 485(14) nm excitation and 535(25) nm emission wavelengths was measured on an EnVision (Perkin Elmer) plate reader. […]
Quick reminder: number only, in %, skip the unit.

Please look up its parasite growth, % of DMSO control: O=C(O)CCCCC(CCSCc1ccccc1)SCc1ccccc1 (stereo unspecified) 76.2

Please look up its parasite growth, % of DMSO control: COc1cc(C[C@@H](CO)[C@H](CO)Cc2ccc(O)c(OC)c2)ccc1O 90.4

Please look up its parasite growth, % of DMSO control: CC(=O)SCC(Cc1ccccc1)C(=O)NCC(=O)OCc1ccccc1 (stereo unspecified) 43.2

Please look up its parasite growth, % of DMSO control: CCCc1nc(C(C)(C)O)c(C(=O)O)n1Cc1ccc(-c2ccccc2-c2nn[nH]n2)cc1 87.7

Please look up its parasite growth, % of DMSO control: Oc1ccc([C@@H]2Oc3ccc(O)cc3[C@@H]3CCC[C@@H]32)cc1 43.6

Please look up its parasite growth, % of DMSO control: CS(=O)(=O)N1CCc2c(-c3cnc(N)nc3)nc(N3CCOCC3)nc21 5.02

Please look up its parasite growth, % of DMSO control: CCCCCCCCCCCC(CC1OC(=O)C1CCCCCC)OC(=O)C(CC(C)C)NC=O (stereo unspecified) 7.26

Please look up its parasite growth, % of DMSO control: N#CNC(=NCCCCCCOc1ccc(Cl)cc1)Nc1ccncc1 12.1

Please look up its parasite growth, % of DMSO control: CN[C@@H]1C[C@H]2O[C@@](C)([C@H]1OC)n1c3ccccc3c3c4c(c5c6ccccc6n2c5c31)C(=O)N[C@H]4O 5.29

Please look up its parasite growth, % of DMSO control: CC(=O)NCC(=O)N1[C@H]2CC[C@H]1c1cc(Nc3ncc(C(F)(F)F)c(NC4CCC4)n3)ccc12 8.18

Please look up its parasite growth, % of DMSO control: O=C1NC(=O)[C@@H](c2cn3c4c(cccc24)CCC3)[C@H]1c1c[nH]c2ccccc12 54.8

Please look up its parasite growth, % of DMSO control: Cc1cncc2cccc(S(=O)(=O)N3CCCN(C(=O)CN)C[C@@H]3C)c12 85.8

Please look up its parasite growth, % of DMSO control: CC(C)(C)c1nc2c3cc[nH]c(=O)c3c3cc(F)ccc3c2[nH]1 59.4

Please look up its parasite growth, % of DMSO control: O=C(NC1CC1)c1cccc(-c2ccc3c(NC(=O)C4CC4)n[nH]c3c2)c1 35.1

Please look up its parasite growth, % of DMSO control: CN[C@H]1[C@@H](O)[C@@H]2O[C@@H]3O[C@H](C)CC(=O)[C@]3(O)O[C@@H]2[C@@H](NC)[C@H]1O 6.52

Please look up its parasite growth, % of DMSO control: COC(=O)[C@@H]1CC2=CC(=O)CC[C@]2(C)[C@@]23O[C@@H]2C[C@@]2(C)[C@H](CC[C@@]24CCC(=O)O4)[C@@H]13 74.7

Please look up its parasite growth, % of DMSO control: CNC(=O)Nc1ccc(-c2nc(N3CC4CCC(C3)O4)c3cnn(C4CCC5(CC4)OCCO5)c3n2)cc1 5.91

Please look up its parasite growth, % of DMSO control: Cc1cnn(C)c1C(=O)Nc1cc(Nc2ccc3c(C=Cc4ccccn4)n[nH]c3c2)ccc1F 4.63

Please look up its parasite growth, % of DMSO control: CCOC(=O)N1CCN([N+]([O-])=NOc2ccc([N+](=O)[O-])cc2C#N)CC1 10.5

Please look up its parasite growth, % of DMSO control: C[C@@H](Cc1cc2c(c(C(N)=O)c1)N(CCCO)CC2)NCCOc1ccccc1OCC(F)(F)F 48.1

Please look up its parasite growth, % of DMSO control: COc1cc2c(cc1O)CCC1C2CC[C@@]2(C)C1CC[C@@H]2O (stereo partly specified) 79.6

Please look up its parasite growth, % of DMSO control: O=C(C=CC#Cc1cccc(NS(=O)(=O)c2ccccc2)c1)NO 5.45

Please look up its parasite growth, % of DMSO control: Cc1cn([C@@H]2O[C@H](CO)[C@@H](O)[C@H]2F)c(=O)[nH]c1=O 100

Please look up its parasite growth, % of DMSO control: COc1ccc(Nc2nccc(NCCO)n2)cc1 67.2

Please look up its parasite growth, % of DMSO control: C[C@]12CCC(=O)C=C1[C@@H]1CC1[C@H]1[C@H]3[C@@H]4C[C@H]4[C@@]4(CCC(=O)O4)[C@@]3(C)CC[C@H]12 (stereo partly specified) 65.8

Please look up its parasite growth, % of DMSO control: C#C[C@]1(O)CC[C@@H]2[C@@H]3CCc4cc(O)ccc4[C@H]3CC[C@@]21C 75.9

Please look up its parasite growth, % of DMSO control: COc1cc(C)c(Sc2cnc(NC(=O)c3ccc(CNC(C)C(C)(C)C)cc3)s2)cc1C(=O)N1CCN(C(C)=O)CC1 (stereo unspecified) 7.09

Please look up its parasite growth, % of DMSO control: CC(C)Oc1ccc(C(=O)N[C@H](CNC(=O)CN(C)C)Cc2ccc(-c3cn4cccc([C@H](C)O)c4n3)cc2)cc1Cl 5.62

Please look up its parasite growth, % of DMSO control: O=C(O)c1ccc(Nc2ncc3c(n2)-c2ccc(Cl)cc2C(c2c(F)cccc2F)=NC3)cc1 56.9

Please look up its parasite growth, % of DMSO control: CON=C(C(=O)N[C@@H]1C(=O)N2C(C(=O)O)=C(CSC(=O)c3ccco3)CS[C@H]12)c1csc(N)n1 88.2

Please look up its parasite growth, % of DMSO control: Nc1nc2c(c(=O)[nH]1)N(C=O)[C@H](CNc1ccc(C(=O)N[C@@H](CCC(=O)O)C(=O)O)cc1)CN2 106

Please look up its parasite growth, % of DMSO control: O=C(NCc1ccccc1)[C@H](Cc1ccccc1)NC(=O)[C@@H]1O[C@@H]1C(=O)NCCc1ccc(O)cc1 17.3

Please look up its parasite growth, % of DMSO control: O=C(O)[C@H](CC(=O)N1C[C@@H]2CCCC[C@H]2C1)Cc1ccccc1 71.6

Please look up its parasite growth, % of DMSO control: CC(C)C[C@H](NC(=O)CNC(=O)c1cc(Cl)ccc1Cl)B1OC(=O)CC(CC(=O)O)(C(=O)O)O1 (stereo partly specified) 4.74

Please look up its parasite growth, % of DMSO control: c1cc(N[C@@H]2CCNC2)nc(-c2cnc3ccc(-c4cn[nH]c4)cn23)c1 5.24

Please look up its parasite growth, % of DMSO control: CC(=O)[C@]1(O)Cc2c(O)c3c(c(O)c2[C@@H](O[C@H]2C[C@H](N)[C@@H](O)[C@H](C)O2)C1)C(=O)c1ccccc1C3=O 27.7
